The values you see were collected from ChEMBL document CHEMBL4145442.

List of pIC50 tested on UniProt:P07333.
Sequence (P07333 whole entry): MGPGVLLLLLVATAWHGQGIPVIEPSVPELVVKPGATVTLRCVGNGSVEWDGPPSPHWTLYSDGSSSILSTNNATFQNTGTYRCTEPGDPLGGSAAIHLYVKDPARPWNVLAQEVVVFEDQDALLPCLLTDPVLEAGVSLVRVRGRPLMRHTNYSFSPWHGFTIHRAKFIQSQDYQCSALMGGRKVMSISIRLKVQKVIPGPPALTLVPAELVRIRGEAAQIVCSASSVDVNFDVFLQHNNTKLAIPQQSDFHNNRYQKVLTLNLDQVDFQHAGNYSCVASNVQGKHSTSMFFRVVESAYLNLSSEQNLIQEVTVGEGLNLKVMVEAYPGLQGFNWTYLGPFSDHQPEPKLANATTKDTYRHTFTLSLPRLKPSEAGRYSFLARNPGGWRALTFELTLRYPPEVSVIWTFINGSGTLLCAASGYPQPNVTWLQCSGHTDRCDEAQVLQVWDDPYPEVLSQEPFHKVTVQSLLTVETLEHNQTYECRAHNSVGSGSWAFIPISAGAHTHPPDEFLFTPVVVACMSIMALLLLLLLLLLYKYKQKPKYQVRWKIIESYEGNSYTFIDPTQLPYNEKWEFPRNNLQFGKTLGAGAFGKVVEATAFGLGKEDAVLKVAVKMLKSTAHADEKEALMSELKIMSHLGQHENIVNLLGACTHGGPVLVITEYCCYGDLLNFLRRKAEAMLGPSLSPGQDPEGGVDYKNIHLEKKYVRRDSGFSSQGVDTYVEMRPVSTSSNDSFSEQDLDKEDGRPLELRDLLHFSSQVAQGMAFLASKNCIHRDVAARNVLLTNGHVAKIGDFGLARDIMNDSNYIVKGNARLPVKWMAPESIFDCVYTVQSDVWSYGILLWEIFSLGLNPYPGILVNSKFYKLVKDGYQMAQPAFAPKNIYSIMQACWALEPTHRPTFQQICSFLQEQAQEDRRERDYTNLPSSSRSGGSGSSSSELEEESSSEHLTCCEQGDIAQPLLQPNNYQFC
// scale note: pIC50 = -log10(conc_M); give the bare number

Reference set, count: 2
COc1ccc(Oc2nc(Nc3ccc(N4CCOCC4)cc3)ncc2/N=C/c2cc(OC)cc(OC)c2)cc1 | 8.34
COc1cc(/C=N/c2cnc(Nc3ccc(N4CCOCC4)cc3)nc2Oc2cccc(OC)c2)cc(OC)c1 | 8.07

Please examine the following record next.
What value of measured pIC50 is listed for `COc1cc(/C=N/c2cnc(Nc3ccc(N4CCOCC4)cc3)nc2Oc2ccc(C)cc2OC)cc(OC)c1` ?
6.05

====

Biological target: Tyrosine-protein kinase Lck (Homo sapiens)
Sequence (P06239 2-509 limits assumed): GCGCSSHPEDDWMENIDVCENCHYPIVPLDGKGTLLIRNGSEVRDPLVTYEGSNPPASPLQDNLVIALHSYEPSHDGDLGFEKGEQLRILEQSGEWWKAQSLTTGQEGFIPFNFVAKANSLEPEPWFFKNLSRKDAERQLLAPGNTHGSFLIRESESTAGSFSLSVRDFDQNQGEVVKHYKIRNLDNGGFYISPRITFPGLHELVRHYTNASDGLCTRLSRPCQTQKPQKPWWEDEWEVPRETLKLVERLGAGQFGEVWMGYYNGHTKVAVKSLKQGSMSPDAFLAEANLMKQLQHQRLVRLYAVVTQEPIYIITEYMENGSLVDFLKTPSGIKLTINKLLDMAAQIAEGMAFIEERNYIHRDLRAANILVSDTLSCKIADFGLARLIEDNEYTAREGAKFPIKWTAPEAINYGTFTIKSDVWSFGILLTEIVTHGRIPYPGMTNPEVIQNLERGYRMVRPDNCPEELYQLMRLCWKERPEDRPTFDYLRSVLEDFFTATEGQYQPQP
Assay: Inhibition of LCK (unknown origin) assessed as remaining activity at 3.33 x 10^-6 M after 120 mins in presence of 33P-ATP (reference value: […]% to […]%)
Conditions: at 3.33 µM
Activity values by entry

Reference set, count: 5
COc1cc(C)ccc1Oc1nc(Nc2ccc(N3CCOCC3)cc2)ncc1/N=C/c1cccc(Cl)c1 | 15.3 to 16.8%
COc1cc(NC(=O)Nc2cnc(Nc3ccc(N4CCOCC4)cc3)nc2Oc2ccc(F)cc2)cc(OC)c1 | 77.8 to 81.3%
COc1ccc(OC)c(/C=N/c2cnc(Nc3ccc(N4CCOCC4)cc3)nc2Oc2ccc(C)cc2OC)c1 | 12.8 to 13.1%
COc1cc(/C=N/c2cnc(Nc3ccc(N4CCOCC4)cc3)nc2Oc2cccc(OC)c2)cc(OC)c1 | 34.8 to 36.1%
COc1cc(/C=N/c2cnc(Nc3ccc(N4CCOCC4)cc3)nc2Oc2ccc(C)cc2OC)cc(OC)c1 | 10.3 to 12.6%

What value of measured Activity is listed for `COc1cc(NC(=O)Nc2cnc(Nc3ccc(N4CCOCC4)cc3)nc2Oc2ccc(C(F)(F)F)cc2)cc(OC)c1` ?
83.8 to 90.7%

What value of measured Activity is listed for `COc1ccc(Oc2nc(Nc3ccc(N4CCOCC4)cc3)ncc2/N=C/c2cc(OC)cc(OC)c2)cc1` ?
30.3 to 32.9%

What value of measured Activity is listed for `COc1cc(C)ccc1Oc1nc(Nc2ccc(N3CCOCC3)cc2)ncc1/N=C/c1ccc(Cl)cc1` ?
14.7%

====

Molecular target: Tyrosine-protein kinase Lck (Homo sapiens)
Experiment: Inhibition of LCK (unknown origin) assessed as remaining activity at 3 x 10^-5 M after 120 mins in presence of 33P-ATP (reference value: […]% to […]%)
Details: at 30 µM
MEASURED ATTRIBUTE: Activity

Reference set, count: 10
COc1cc(C)ccc1Oc1nc(Nc2ccc(N3CCOCC3)cc2)ncc1/N=C/c1cccc(Cl)c1 | 28.6 to 36.9%
COc1cc(NC(=O)Nc2cnc(Nc3ccc(N4CCOCC4)cc3)nc2Oc2cccc(OC)c2)cc(OC)c1 | 62.1 to 63.2%
COc1cc(C)ccc1Oc1nc(Nc2ccc(N3CCOCC3)cc2)ncc1NCc1cc(C(F)(F)F)cc(C(F)(F)F)c1 | 41.1 to 41.7%
COc1cc(/C=N/c2cnc(Nc3ccc(N4CCOCC4)cc3)nc2Oc2ccc(C)cc2OC)cc(OC)c1 | 4.38 to 7.22%
COc1ccccc1NC(=O)Nc1cnc(Nc2ccc(N3CCOCC3)cc2)nc1Oc1ccc(C)cc1OC | 35.9 to 36.2%
COc1cc(C)ccc1Oc1nc(Nc2ccc(N3CCOCC3)cc2)ncc1NCc1ccc(Cl)cc1 | 2.49 to 2.9%
COc1cc(C)ccc1Oc1nc(Nc2ccc(N3CCOCC3)cc2)ncc1NCc1ccc(OC(F)(F)F)cc1 | 21.3 to 22.5%
COc1cc(C)ccc1Oc1nc(Nc2ccc(N3CCOCC3)cc2)ncc1/N=C/c1cc(C(F)(F)F)cc(C(F)(F)F)c1 | 24.1 to 28.5%
COc1cc(OC)cc(C(=O)Nc2cnc(Nc3ccc(N4CCOCC4)cc3)nc2Oc2ccc(C)cc2OC)c1 | 39 to 39.6%
COc1ccc(Oc2nc(Nc3ccc(N4CCOCC4)cc3)ncc2/N=C/c2cc(OC)cc(OC)c2)cc1 | 44.8 to 48.5%

Please examine the following record next.
What value of measured Activity is listed for `COc1cc(Nc2ncc(NC(=O)Nc3c(Cl)cccc3Cl)c(Oc3ccc(C)cc3OC)n2)cc(OC)c1` ?
61.5 to 61.7%
